Taken from patent US20240294541A1.

# Test system: MV-4-11 (human biphenotypic leukaemia)
# experimental_details: In vitro cytotoxicity, MTT assay, MV-4-11
# Format: cell-based
property_name: SI MV4-11
Keep it simple and answer with nothing but the number.

SI MV4-11 in this record for CC[C@@H](C(=O)[C@@H](C)[C@@H](O)[C@H](C)[C@@H]1O[C@@H]([C@@H](CC)C(=O)O)CC[C@@H]1C)[C@H]1O[C@]2(C=C[C@@H](NC(=O)C(=O)NC3CC3)[C@]3(CC[C@@](C)([C@H]4CC[C@](O)(CC)[C@H](C)O4)O3)O2)[C@H](C)C[C@@H]1C : 42.5

For this compound ( CC[C@@H](C(=O)[C@@H](C)[C@@H](O)[C@H](C)[C@@H]1O[C@@H]([C@@H](CC)C(=O)O)CC[C@@H]1C)[C@H]1O[C@]2(C=C[C@@H](NC(=O)Nc3c(F)c(F)c(F)c(F)c3F)[C@]3(CC[C@@](C)([C@H]4CC[C@](O)(CC)[C@H](C)O4)O3)O2)[C@H](C)C[C@@H]1C ), measured SI MV4-11 is 182.9

Lookup result for CC[C@@H](C(=O)[C@@H](C)[C@@H](O)[C@H](C)[C@@H]1O[C@@H]([C@@H](CC)C(=O)O)CC[C@@H]1C)[C@H]1O[C@]2(C=C[C@@H](NC(=O)C(=O)NC)[C@]3(CC[C@@](C)([C@H]4CC[C@](O)(CC)[C@H](C)O4)O3)O2)[C@H](C)C[C@@H]1C ; measured SI MV4-11: 23.4

Measured SI MV4-11, CC[C@@H](C(=O)[C@@H](C)[C@@H](O)[C@H](C)[C@@H]1O[C@@H]([C@@H](CC)C(=O)O)CC[C@@H]1C)[C@H]1O[C@]2(C=C[C@@H](NC(=O)OC3CCN(C)CC3)[C@]3(CC[C@@](C)([C@H]4CC[C@](O)(CC)[C@H](C)O4)O3)O2)[C@H](C)C[C@@H]1C : 17.8

Form field SI MV4-11, entry CC[C@@H](C(=O)[C@@H](C)[C@@H](O)[C@H](C)[C@@H]1O[C@@H]([C@@H](CC)C(=O)O)CC[C@@H]1C)[C@H]1O[C@]2(C=C[C@@H](NC(=O)c3ccccc3Cl)[C@]3(CC[C@@](C)([C@H]4CC[C@](O)(CC)[C@H](C)O4)O3)O2)[C@H](C)C[C@@H]1C : 40.4

Record CC[C@@H](C(=O)[C@@H](C)[C@@H](O)[C@H](C)[C@@H]1O[C@@H]([C@@H](CC)C(=O)O)CC[C@@H]1C)[C@H]1O[C@]2(C=C[C@@H](NC(=O)OCc3ccccc3Cl)[C@]3(CC[C@@](C)([C@H]4CC[C@](O)(CC)[C@H](C)O4)O3)O2)[C@H](C)C[C@@H]1C , field SI MV4-11: 40.7

In plain terms, CC[C@@H](C(=O)[C@@H](C)[C@@H](O)[C@H](C)[C@@H]1O[C@@H]([C@@H](CC)C(=O)O)CC[C@@H]1C)[C@H]1O[C@]2(C=C[C@@H](NC(=O)C(C)(C)CCl)[C@]3(CC[C@@](C)([C@H]4CC[C@](O)(CC)[C@H](C)O4)O3)O2)[C@H](C)C[C@@H]1C has a documented SI MV4-11 of 62.7

Briefly, SI MV4-11 measured for CC[C@@H](C(=O)[C@@H](C)[C@@H](O)[C@H](C)[C@@H]1O[C@@H]([C@@H](CC)C(=O)O)CC[C@@H]1C)[C@H]1O[C@]2(C=C[C@@H](NC(=O)N3CCS(=O)(=O)CC3)[C@]3(CC[C@@](C)([C@H]4CC[C@](O)(CC)[C@H](C)O4)O3)O2)[C@H](C)C[C@@H]1C : 15.7

Recorded SI MV4-11 (compound CC[C@@H](C(=O)[C@@H](C)[C@@H](O)[C@H](C)[C@@H]1O[C@@H]([C@@H](CC)C(=O)O)CC[C@@H]1C)[C@H]1O[C@]2(C=C[C@@H](NC(=O)OCCCCCCCl)[C@]3(CC[C@@](C)([C@H]4CC[C@](O)(CC)[C@H](C)O4)O3)O2)[C@H](C)C[C@@H]1C ): 98.9

Record CC[C@@H](C(=O)[C@@H](C)[C@@H](O)[C@H](C)[C@@H]1O[C@@H]([C@@H](CC)C(=O)O)CC[C@@H]1C)[C@H]1O[C@]2(C=C[C@@H](NC(=O)OC(CCl)CCl)[C@]3(CC[C@@](C)([C@H]4CC[C@](O)(CC)[C@H](C)O4)O3)O2)[C@H](C)C[C@@H]1C . Reported SI MV4-11: 32.6

Record CC[C@@H](C(=O)[C@@H](C)[C@@H](O)[C@H](C)[C@@H]1O[C@@H]([C@@H](CC)C(=O)O)CC[C@@H]1C)[C@H]1O[C@]2(C=C[C@@H](NS(=O)(=O)c3c(C)noc3C)[C@]3(CC[C@@](C)([C@H]4CC[C@](O)(CC)[C@H](C)O4)O3)O2)[C@H](C)C[C@@H]1C , field SI MV4-11: 35.3

SI MV4-11 for CC[C@@H](C(=O)[C@@H](C)[C@@H](O)[C@H](C)[C@@H]1O[C@@H]([C@@H](CC)C(=O)O)CC[C@@H]1C)[C@H]1O[C@]2(C=C[C@@H](NC(=O)C(C)(C)C)[C@]3(CC[C@@](C)([C@H]4CC[C@](O)(CC)[C@H](C)O4)O3)O2)[C@H](C)C[C@@H]1C is 26.6
